# Tested on: Human immunodeficiency virus 1
# Assay overview: Antiviral activity against HIV1 in human MT4 cells assessed as inhibition of virus-induced cytopathogenicity by MTT assay
# Format: functional, organism-based
# Measurement setup: Human immunodeficiency virus 1, MT4
# pEC50 per record follows
Keep it numeric: pEC50 is minus log10 of the concentration in mol/L.

Examples with their reported pEC50 follow.
>>> print(df.to_string())
                                   compound                          target  recorded_measurement
0  COc1ccccc1CCOC(=S)Nc1ccc(Cl)c([N+](=O)[O-])c1  Human immunodeficiency virus 1                  6.05
1           COc1ccccc1CCOC(=S)Nc1ccc(Cl)cc1  Human immunodeficiency virus 1                  7.15
2  Cc1cccc(CCOC(=S)Nc2ccc([N+](=O)[O-])cc2)c1  Human immunodeficiency virus 1                  6.30
3  COc1cccc(CCOC(=S)Nc2ccc(Cl)c([N+](=O)[O-])c2)c1  Human immunodeficiency virus 1                  5.70
4  CC(COC(=S)Nc1ccc(Cl)cc1)c1ccccc1 (racemic)  Human immunodeficiency virus 1                  6.70
5  CC(OC(=S)Nc1ccc(Cl)cc1)c1ccc(-c2ccccc2)cc1 (racemic)  Human immunodeficiency virus 1                  4.24
6  CC(COC(=S)Nc1ccc(Cl)c(Cl)c1)c1ccccc1 (racemic)  Human immunodeficiency virus 1                  6.52
7            S=C(Nc1ccc(Cl)cc1)OCCOc1ccccc1  Human immunodeficiency virus 1                  5.54
8  O=[N+]([O-])c1ccc(NC(=S)OCCc2cccc(Cl)c2)cc1  Human immunodeficiency virus 1                  5.82
9         COc1cccc(CCOC(=S)Nc2ccc(Cl)cc2)c1  Human immunodeficiency virus 1                  7.10

(Q) Check the records and state pEC50 for `S=C(Nc1ccccc1)OCCOc1ccccc1`
(A) 5.24

(Q) Check the records and state pEC50 for `O=[N+]([O-])c1ccc(NC(=S)OCCc2ccc(Br)cc2)cc1`
(A) 5.10

(Q) Check the records and state pEC50 for CC(COC(=S)Nc1ccc(Cl)c([N+](=O)[O-])c1)c1ccccc1 (racemic)
(A) 6.30

###

# Tested on: Human immunodeficiency virus 1
# Assay overview: Antiviral activity against HIV1 in human MT4 cells assessed as inhibition of virus-induced cytopathogenicity by MTT assay
# Type: functional, organism-based
# Measurement setup: Human immunodeficiency virus 1, MT4
Reported property: pEC50
Keep it numeric: pEC50 is minus log10 of the concentration in mol/L.

>>> df
                                   compound  reported_property  recorded_measurement
0             Cc1ccc(NC(=S)OCCOc2ccccc2)cc1              pEC50                  5.00
1  COc1ccccc1CCOC(=S)Nc1ccc([N+](=O)[O-])cc1              pEC50                  7.00
2  O=[N+]([O-])c1ccc(NC(=S)OCCc2ccc(Cl)cc2)cc1              pEC50                  4.89
3    CC(Cc1ccccc1)OC(=S)Nc1ccccc1 (racemic)              pEC50                  5.05
4  CC(COc1ccccc1)OC(=S)Nc1ccc(Cl)cc1 (racemic)              pEC50                  5.80

(Q) Check the records and state pEC50 for `COc1cccc(CCOC(=S)Nc2ccc([N+](=O)[O-])cc2)c1`
(A) 6.70

(Q) Check the records and state pEC50 for `S=C(Nc1ccccc1)OCC1(c2ccccc2)CC1`
(A) 5.15
